Taken from patent US8778974B2.

- Target Entity: hα7-wt nAChR-expressing GH4Cl cells (Homo sapiens)
- Construct: expressed in transfected cells
- Sequence (P36544 23-502): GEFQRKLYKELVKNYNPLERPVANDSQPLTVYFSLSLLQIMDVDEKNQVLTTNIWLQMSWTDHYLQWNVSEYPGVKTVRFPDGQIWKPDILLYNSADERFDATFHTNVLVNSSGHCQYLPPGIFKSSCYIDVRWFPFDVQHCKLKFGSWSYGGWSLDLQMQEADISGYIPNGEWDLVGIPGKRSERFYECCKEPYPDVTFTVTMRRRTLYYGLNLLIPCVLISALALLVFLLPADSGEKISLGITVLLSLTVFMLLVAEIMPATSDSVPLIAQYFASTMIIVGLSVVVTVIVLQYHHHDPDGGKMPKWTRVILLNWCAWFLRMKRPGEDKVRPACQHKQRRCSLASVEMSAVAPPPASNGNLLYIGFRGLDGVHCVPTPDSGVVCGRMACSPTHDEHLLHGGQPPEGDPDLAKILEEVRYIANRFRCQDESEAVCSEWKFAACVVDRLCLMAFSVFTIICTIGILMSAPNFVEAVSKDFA
- Protocol Summary: Patch-clamp current recording (whole-cell), potentiation of choline 1 mM response, PAM type
- Format: cell-based
- Conditions Used: according to Ex. D.2; "<5" = no top plateau reached at maximal concentration; read-out: Potency (pEC50) (converted)
Endpoint: EC50 (µM)

Recorded EC50, per entry:
>  <Smiles Input>
Cc1cc(-n2nc(Nc3ccc(F)c(C(F)(F)F)c3)nc2CCCO)ccn1

>  <EC50 (µM)>
1

$$$$
>  <Smiles Input>
Cc1cc(-n2nc(Nc3cc(F)c(F)c(F)c3)nc2CC(=O)NC2CC2)cc(C)n1

>  <EC50 (µM)>
0.138

$$$$
>  <Smiles Input>
COc1cc(Cl)cc(Nc2nc(CC(=O)NC3CC3)n(-c3cc(C)nc(C)c3)n2)c1

>  <EC50 (µM)>
0.209

$$$$
>  <Smiles Input>
Cc1cc(-n2nc(Nc3ccc(F)c(F)c3)nc2CC(=O)NC2CCC2)cc(C)n1

>  <EC50 (µM)>
0.295

$$$$
>  <Smiles Input>
COc1ccc(-n2nc(Nc3ccc(F)c(F)c3)nc2CCC(=O)N(C)C)cc1OC

>  <EC50 (µM)>
0.525

$$$$

A: Cc1cc(-n2nc(Nc3ccc(F)c(F)c3)nc2CC(=O)NC2CC2)cc(C)n1
B: O=C(CCc1nc(Nc2cccc(OC(F)(F)F)c2)nn1-c1cccnc1)N1CCCC1
C: CN(C)C(=O)CCc1nc(Nc2cccc(OC(F)(F)F)c2)nn1-c1ccc2c(c1)OCCO2
D: Cc1cc(-n2nc(Nc3cccc(C(F)(F)F)c3)nc2CC(=O)NC2CCC2)cc(C)n1
[ask] Sort the 4 compounds by EC50; largest first, smallest last. Please, when replying, give the labels in the order that was requested.
[reply] A, B, D, C

P: CNC(=O)CCc1nc(Nc2ccc(F)c(C(F)(F)F)c2)nn1-c1cccc(OC)c1
Q: Cc1cc(-n2nc(Nc3ccc(F)c(F)c3)nc2C[C@@H](C)O)cc(C)n1
[ask] # return whichever of P and Q has the smaller EC50 Your answer should be the label attached to the chosen record.
[reply] Q

1: CNC(=O)CCc1nc(Nc2ccc(F)c(F)c2)nn1-c1ccc(Cl)cc1
2: Cc1ccc(-n2nc(Nc3ccc4c(c3)OC(F)(F)O4)nc2CCC(=O)N(C)C)cn1
[ask] # return whichever of 1 and 2 has the smaller EC50 Your answer should be the label attached to the chosen record.
[reply] 2

1: Cc1cc(-n2nc(Nc3ccc4c(c3)OC(F)(F)O4)nc2CC(=O)NC2CC2)c(C)cn1
2: CCNC(=O)Cc1nc(Nc2cc(F)cc(Cl)c2)nn1-c1cc(C)nc(C)c1
[ask] Of the two listed items, 1 and 2 , which carries the larger EC50 figure? Your answer should be the label attached to the chosen record.
[reply] 1
(1: 2.14 µM, 2: 0.275 µM)

I: Cc1cc(-n2nc(Nc3cc(F)cc(C(F)(F)F)c3)nc2CC(=O)NC2CC2)cc(C)n1
II: CC[C@H](O)Cc1nc(Nc2ccc(OC)cc2)nn1-c1cc(C)nc(C)c1
[ask] # return whichever of I and II has the smaller EC50 Your answer should be the label attached to the chosen record.
[reply] I
(I: 0.0912 µM, II: 1.35 µM)

P: CC[C@H](O)Cc1nc(Nc2cccc(Cl)c2)nn1-c1ccc(C)nc1
Q: CNC(=O)CCc1nc(Nc2ccc(F)c(F)c2)nn1-c1ccccc1Cl
[ask] Of the two listed items, P and Q , which carries the larger EC50 figure? Your answer should be the label attached to the chosen record.
[reply] Q
(Q: 3.09 µM, P: 0.912 µM)

P: Cc1cc(-n2nc(Nc3ccc(F)c(F)c3)nc2CC(=O)NCC2CC2)c(C)cn1
Q: Cc1cc(-n2nc(Nc3ccc(F)c(C(F)(F)F)c3)nc2C[C@@H](C)O)cc(C)n1
[ask] Of the two listed items, P and Q , which carries the larger EC50 figure? Your answer should be the label attached to the chosen record.
[reply] P
(P: 2.34 µM, Q: 1.07 µM)

A: CNc1ncccc1-n1nc(Nc2cccc(OC(F)(F)F)c2)nc1CCC(=O)N(C)C
B: CCOC(=O)CCc1nc(Nc2ccc(F)c(C(F)(F)F)c2)nn1-c1ccc2c(c1)OCCO2
[ask] Of the two listed items, A and B , which carries the larger EC50 figure? Your answer should be the label attached to the chosen record.
[reply] A
